System: ATP;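 also: ATP exposure 15 min at 22 °C before imaging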
ASSAY_NAME: switch fluorescence ratio, 500 uM ATP over buffer (Cy3 cluster intensity, sum of 5 cycles each) (fold (ratio)); higher = stronger signal-on switching upon ATP binding; sequences stand for … in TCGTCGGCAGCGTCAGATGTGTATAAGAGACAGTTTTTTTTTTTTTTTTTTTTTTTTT…TC
MEASUREMENT_PARAMETERS: aptamer strand: ATP DNA aptamer (quencher-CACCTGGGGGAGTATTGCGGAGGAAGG + anchor), 100 nM annealed; ATP concentration: 500 uM
Listing of recorded switch fluorescence ratio by entry.
PROPERTY_MEASURED: switch fluorescence ratio

[[record]]
residues = "GGAAAATAGT"
recorded_value = 1.02

[[record]]
residues = "TTCGATCGTT"
recorded_value = 1.01

[[record]]
residues = "TATATGGGAA"
recorded_value = 0.998

[[record]]
residues = "TGTTGTAGCT"
recorded_value = 1.02

[[record]]
residues = "AGGGATAGTT"
recorded_value = 0.992

[[record]]
residues = "GTATTAAAAG"
recorded_value = 1

[[record]]
residues = "AGTAGTTCGG"
recorded_value = 1.02

[[record]]
residues = "GGGGTGAGGA"
recorded_value = 0.981

[[record]]
residues = "TAAAGATGAT"
recorded_value = 1.01

[[record]]
residues = "AGTGTCCTGG"
recorded_value = 0.986

[[record]]
residues = "AGGTGATAGG"
recorded_value = 0.982

[[record]]
residues = "AAGGGCCCTT"
recorded_value = 1.01

[[record]]
residues = "ATGGGCATC"
recorded_value = 0.988

[[record]]
residues = "GAATTGGGGA"
recorded_value = 1.01

[[record]]
residues = "CTTGTCATCG"
recorded_value = 0.993

[[record]]
residues = "GTGGATAGTC"
recorded_value = 0.992

[[record]]
residues = "AATAGGCATG"
recorded_value = 0.979

[[record]]
residues = "GGGGGGGGAG"
recorded_value = 1.01

[[record]]
residues = "TTTCAAAAGT"
recorded_value = 1.01

[[record]]
residues = "TGGGTTCGAA"
recorded_value = 0.98

[[record]]
residues = "GATGTAGTAG"
recorded_value = 1.01


* * *

Test system: ATP;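 also: ATP exposure 15 min at 22 °C before imaging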
ASSAY_NAME: switch fluorescence ratio, 500 uM ATP over buffer (Cy3 cluster intensity, sum of 5 cycles each) (fold (ratio)); higher = stronger signal-on switching upon ATP binding; sequences stand for … in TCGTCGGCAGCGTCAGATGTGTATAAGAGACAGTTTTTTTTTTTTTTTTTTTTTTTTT…TC
MEASUREMENT_PARAMETERS: aptamer strand: ATP DNA aptamer (quencher-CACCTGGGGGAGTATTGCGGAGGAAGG + anchor), 100 nM annealed; ATP concentration: 500 uM
PROPERTY_MEASURED: switch fluorescence ratio

[[record]]
residues = "GAACGCTGGA"
assayed_system = "ATP"
property_measured = "switch fluorescence ratio"
recorded_value = 1.04

[[record]]
residues = "AGCGATGTCG"
assayed_system = "ATP"
property_measured = "switch fluorescence ratio"
recorded_value = 0.989

[[record]]
residues = "ATCTTCCCCC"
assayed_system = "ATP"
property_measured = "switch fluorescence ratio"
recorded_value = 1.55


* * *

Tested on: ATP;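 also: ATP exposure 15 min at 22 °C before imaging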
ASSAY_NAME: switch fluorescence ratio, 500 uM ATP over buffer (Cy3 cluster intensity, sum of 5 cycles each) (fold (ratio)); higher = stronger signal-on switching upon ATP binding; sequences stand for … in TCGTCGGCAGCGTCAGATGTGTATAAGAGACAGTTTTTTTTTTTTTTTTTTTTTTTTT…TC
MEASUREMENT_PARAMETERS: aptamer strand: ATP DNA aptamer (quencher-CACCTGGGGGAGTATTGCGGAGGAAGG + anchor), 100 nM annealed; ATP concentration: 500 uM
PROPERTY_MEASURED: switch fluorescence ratio

[[record]]
residues = "CTGGTGTATT"
recorded_value = 1.02

[[record]]
residues = "TTTTACTTTT"
recorded_value = 1.01

[[record]]
residues = "GATTTCTTAT"
recorded_value = 0.999

[[record]]
residues = "CACGTCTGAA"
recorded_value = 0.996

[[record]]
residues = "TTTTGGGTAA"
recorded_value = 1.01

[[record]]
residues = "TGGTTTAGTT"
recorded_value = 0.998

[[record]]
residues = "GATTATTGGT"
recorded_value = 0.987

[[record]]
residues = "GTTATATTG"
recorded_value = 1.01

[[record]]
residues = "GAAGATTTGC"
recorded_value = 0.973

[[record]]
residues = "AAGGTCGGGT"
recorded_value = 1.01


* * *

System: ATP;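 also: ATP exposure 15 min at 22 °C before imaging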
ASSAY_NAME: switch fluorescence ratio, 500 uM ATP over buffer (Cy3 cluster intensity, sum of 5 cycles each) (fold (ratio)); higher = stronger signal-on switching upon ATP binding; sequences stand for … in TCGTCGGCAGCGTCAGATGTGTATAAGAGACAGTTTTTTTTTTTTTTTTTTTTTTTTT…TC
MEASUREMENT_PARAMETERS: aptamer strand: ATP DNA aptamer (quencher-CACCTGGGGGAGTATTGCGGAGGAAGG + anchor), 100 nM annealed; ATP concentration: 500 uM
The reader will find reported switch fluorescence ratio values listed item by item below.
PROPERTY_MEASURED: switch fluorescence ratio

[[record]]
residues = "TGAGCGGATG"
recorded_value = 0.994

[[record]]
residues = "AGCTGGGGGG"
recorded_value = 0.982

[[record]]
residues = "CGATTTCTCT"
recorded_value = 0.973

[[record]]
residues = "ATGGCATAAG"
recorded_value = 1

[[record]]
residues = "TCGGGGGGCA"
recorded_value = 0.992

[[record]]
residues = "GTTTTTG"
recorded_value = 0.984

[[record]]
residues = "GGGTTAAGGA"
recorded_value = 0.989

[[record]]
residues = "ATTACGTGTA"
recorded_value = 1.01

[[record]]
residues = "GGCTAACAAG"
recorded_value = 1.01

[[record]]
residues = "TACGTGTTTG"
recorded_value = 1.01

[[record]]
residues = "GATAGTTTTG"
recorded_value = 0.986

[[record]]
residues = "AAATCTTTAT"
recorded_value = 1.01

[[record]]
residues = "TTTGGAGGTA"
recorded_value = 1.01

[[record]]
residues = "CTAGTGACTA"
recorded_value = 0.987

[[record]]
residues = "TGAAGGGTAT"
recorded_value = 1.02

[[record]]
residues = "TAAAGAGTAG"
recorded_value = 1

[[record]]
residues = "TGGGAGATGT"
recorded_value = 0.993

[[record]]
residues = "GTTGTGGGGT"
recorded_value = 0.976

[[record]]
residues = "AGGTTAGCGT"
recorded_value = 0.995

[[record]]
residues = "TGGTTAAGGA"
recorded_value = 1

[[record]]
residues = "GTGCGTCTTT"
recorded_value = 1.01

[[record]]
residues = "TCTTAGGGGT"
recorded_value = 0.981

[[record]]
residues = "ATGGTCGGCC"
recorded_value = 0.983

[[record]]
residues = "TTCAGCTCTA"
recorded_value = 0.993

[[record]]
residues = "AAAAATCGAA"
recorded_value = 1.02

[[record]]
residues = "CGCGCTTTCA"
recorded_value = 1.02

[[record]]
residues = "CGTTAGAATA"
recorded_value = 1.02

[[record]]
residues = "TCGTTGTTAG"
recorded_value = 0.992

[[record]]
residues = "TGAAATATTG"
recorded_value = 0.996

[[record]]
residues = "TGTTGCGGGC"
recorded_value = 1

[[record]]
residues = "CTTGAATGTG"
recorded_value = 1

[[record]]
residues = "ATTTATATTG"
recorded_value = 0.989

[[record]]
residues = "TAGTCATTAA"
recorded_value = 1

[[record]]
residues = "TATGTTAGGA"
recorded_value = 1.01

[[record]]
residues = "GATTTTTGGC"
recorded_value = 0.995

[[record]]
residues = "AACTTAAATT"
recorded_value = 1.01

[[record]]
residues = "ATGTAACGAG"
recorded_value = 1.01

[[record]]
residues = "ATGGTGCGGC"
recorded_value = 1.01

[[record]]
residues = "ATGCACCTCG"
recorded_value = 1.02

[[record]]
residues = "AGCTGTGATG"
recorded_value = 1.01

[[record]]
residues = "TTTGTGCGTC"
recorded_value = 0.977

[[record]]
residues = "GGACTGGAGC"
recorded_value = 0.991

[[record]]
residues = "GTGGGAGCGG"
recorded_value = 1.02

[[record]]
residues = "CTAGGGCATG"
recorded_value = 0.98

[[record]]
residues = "GGGGAAGGGA"
recorded_value = 1

[[record]]
residues = "GACAGTGTGG"
recorded_value = 0.997

[[record]]
residues = "GTGTTGGGGG"
recorded_value = 0.984

[[record]]
residues = "TCAGTGGGGC"
recorded_value = 0.999

